Biological target: CK1ε (Homo sapiens (Human), UniProt P49674)
Sequence (P49674 whole entry): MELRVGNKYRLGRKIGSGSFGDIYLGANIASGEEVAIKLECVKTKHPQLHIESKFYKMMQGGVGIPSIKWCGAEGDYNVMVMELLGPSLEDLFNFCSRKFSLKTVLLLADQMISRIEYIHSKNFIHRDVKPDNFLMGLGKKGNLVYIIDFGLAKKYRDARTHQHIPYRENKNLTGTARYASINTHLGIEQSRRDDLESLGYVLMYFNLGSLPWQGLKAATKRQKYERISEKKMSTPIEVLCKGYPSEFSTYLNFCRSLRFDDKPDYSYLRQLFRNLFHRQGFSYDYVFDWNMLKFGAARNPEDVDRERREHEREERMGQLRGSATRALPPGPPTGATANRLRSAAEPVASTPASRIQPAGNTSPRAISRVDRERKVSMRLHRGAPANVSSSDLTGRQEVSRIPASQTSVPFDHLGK
Attribute Measured: IC50 (nM)

INSERT INTO measurements (compound, observed) VALUES
  ('Cc1n[nH]cc1C(=O)Nc1cn2nc(-c3c(-c4ccc(F)cc4)nc(C)n3C)ccc2n1 [Compound 377]', 4.04),
  ('Cc1nc(-c2ccc(F)cc2)c(-c2ccc3nc(NC(=O)c4cccnn4)cn3n2)n1C [Compound 386]', 55.1),
  ('CN1CCC(n2cnc(-c3ccc(F)cc3)c2-c2ccc3nc(NC(=O)c4ccncc4)cn3n2)CC1 [Compound 2]', 2.46),
  ('O=C(Nc1cn2nc(-c3c(-c4ccc(F)cc4)ncn3CCN3CCOCC3)ccc2n1)c1ccnc2ccccc12 [Compound 166]', 1.3),
  ('O=C(Nc1cn2nc(-c3c(-c4ccc(F)cc4)ncn3C3CCN(C(=O)OCC4CC4)CC3)ccc2n1)c1ccnc(F)c1 [Compound 78]', 2.23),
  ('Cc1nc(-c2ccc(F)cc2)c(-c2ccc3nc(NC(=O)c4cn[nH]c4)cn3n2)n1C [Compound 364]', 4.01),
  ('O=C(Nc1cn2nc(-c3c(-c4ccc(F)cc4)ncn3C3CNC3)ccc2n1)c1ccncc1 [Compound 157]', 9.93);
